Test system: DU-145 prostate
Experiment: NCI-60 one-dose screen, 48 h
Settings: 10 µM unless noted
Description: Cells are grown in 96 well plates and exposed to the test compound for 48 hours. Compounds are tested at a single concentration, which is 10^-5 M for most compounds. The reported endpoint is percent growth (GI% or GIPRCNT), where numbers from 0 - 100% represent growth inhibition, and numbers from -100% - 0 represent cell death. For example, a value of 40 represents 60% growth inhibition. A value of 0 means no net growth occurred over the course of the experiment. […]
About 83,000 compounds went through this panel and 20% of them were active in at least one assay; those are over-represented in the sample as a whole. Activity calls are given as the source filed them. The calls were made as follows: active = growth percent below 10; inactive = the rest.
Your response should consist of one outcome taken from active, inactive

Query: recorded result category for `Cc1cccc(C)c1NCc1nc(-c2ccccc2)n[nH]1` in this test inactive

Query: recorded result category for `Nc1nc(N)c2nc3c(nc2n1)CCCCCCCCCC3` in this test inactive

Query: recorded result category for `COc1cc(-c2c(C#N)c(-c3cccs3)nc3c2c(-c2ccccc2)nn3-c2ccccc2)ccc1O` in this test inactive

Query: recorded result category for N#CC1=C(N)Oc2c(sc3c(F)cccc23)C1c1ccc(Cl)cc1 (configuration not stated) in this test inactive

Query: recorded result category for `C=C(C)[C@@H]1CC[C@]2(C)[C@H](CC=C3[C@@H]4CC(C)(C)CC[C@]4(C(=O)OC)CC[C@]32C)[C@@]1(C)CC/C(N)=N/O` in this test inactive

Query: recorded result category for `COc1ccc(C2(Cl)c3ccccc3N(c3ccccc3)c3ccccc32)cc1` in this test inactive

Query: recorded result category for `Clc1ccc2c(NCCNc3nc(-c4ccccc4)cc(-c4ccccc4)n3)ccnc2c1` in this test active

###

System: NCI/ADR-RES ovarian
Test: NCI-60 one-dose screen, 48 h (100 = growth as untreated, 0 = no growth, -100 = all killed)
Conditions: 10 µM unless noted
Compounds without any hit were thinned out: in the full panel of roughly 83,000, 20% have a hit.
Provide the recorded growth for the entries that follow.
Write the value in % as a bare number.

Name the value of growth reported for `O=C(NCN1C(=O)c2cccc3cccc(c23)C1=O)N1CCC(Cc2ccccc2)CC1` when tested on NCI/ADR-RES ovarian. 102

Name the value of growth reported for `O=S(=O)(NCCNc1cc(-c2cn(-c3ccccc3)nc2-c2cccc(O)c2)ccn1)c1ccc(F)cc1` when tested on NCI/ADR-RES ovarian. 17.9

Name the value of growth reported for `CC(C)(C)c1ccc(OCCCCCCCN2CCNCC2)cc1` when tested on NCI/ADR-RES ovarian. 71.7

Name the value of growth reported for `COc1ccc(-c2nc(SCC(=O)Nc3ccc(C(C)=O)cc3)[nH]c(=O)c2C#N)cc1` when tested on NCI/ADR-RES ovarian. 108

Name the value of growth reported for `COc1cnc2c(c1)C(=O)c1c-2n(CCCNC2=NCCS2)c(=O)c2cc([N+](=O)[O-])ccc12` when tested on NCI/ADR-RES ovarian. -8.56

Name the value of growth reported for `C=C(C)[C@@H]1CC[C@]2(C(=O)N3CCN(C)CC3)CC[C@]3(C)[C@H](CC[C@@H]4[C@@]5(C)C/C(=C/c6ccc(C(F)(F)F)cc6)C(=O)C(C)(C)[C@@H]5CC[C@]43C)[C@@H]12` when tested on NCI/ADR-RES ovarian. 96.8

###

Provide the recorded growth for the entries that follow.
Tested on: SK-OV-3 ovarian
Assay: NCI-60 one-dose screen, 48 h (100 = growth as untreated, 0 = no growth, -100 = all killed)
Conditions: 10 µM unless noted
The panel holds about 83,000 compounds, 20% with a hit somewhere; the sample as a whole holds those more often.
Write the value in % as a bare number.

Identify the reported growth for the following entry. `Cc1cc(C)n(Cc2cc(C(C)(C)C)cc(C(C)(C)C)c2)c(=O)c1C#N` 87

Identify the reported growth for the following entry. `Cn1c2ccccc2c2c3c(c4c5cccnc5[nH]c4c21)C(=O)N(O)C3=O` 37.5

Identify the reported growth for the following entry. `CC(=O)c1c(C)[nH]c(-c2nc3ccc(N4CCN(C)CC4)cc3[nH]2)c1-c1ccc2c(c1)OCCO2` 28.7

Identify the reported growth for the following entry. `COC(=O)[C@]12CC[C@@H](C(C)=O)[C@@H]1[C@H]1CC[C@@H]3[C@@]4(C)C/C(=C/c5cccnc5)C(=O)C(C)(C)[C@@H]4CC[C@@]3(C)[C@]1(C)CC2` 93.7

Identify the reported growth for the following entry. `O=C(/C=C/c1ccc2ccccc2c1)Nc1ncc(Cc2ccccc2)s1` 87.8

###

System: SW-620 colon
Experiment: NCI-60 one-dose screen, 48 h
Conditions: 10 µM unless noted
The panel holds about 83,000 compounds, 20% with a hit somewhere; the sample as a whole holds those more often. Calls of active or inactive are those of the source. The calls were made as follows: active = growth percent below 10; inactive = the rest.
Your response should consist of one outcome taken from active, inactive

Query: recorded result category for `CN1CCN(c2nc(-c3csc(-c4cccs4)n3)cc3ccccc23)CC1` in this test active

Query: recorded result category for `COc1ccc(-c2nc3ccccn3c2-c2nc3ccc(Cl)cc3[nH]2)cc1` in this test inactive

Query: recorded result category for `C[C@H]1[C@@H]2[C@H]3CC[C@@H]4[C@@]5(C)Cc6c([nH]c7ccccc67)C(C)(C)[C@@H]5CC[C@@]4(C)[C@]3(C)CC[C@]23CO[C@]1(C)[C@@H](C(=O)/C=C/c1ccccn1)C3` in this test inactive

Query: recorded result category for `O=C1c2cc3c(cc2-c2c1c1ccc(F)cc1c(=O)n2CCCN1CCOCC1)OCO3` in this test inactive

Query: recorded result category for `O=C(O)c1cccc2c1C(=O)N(c1ccc3c(c1)Cc1ccccc1-3)C2=O` in this test inactive

Query: recorded result category for `C=C1C(=O)O[C@H]2[C@H]1CC/C(Cn1cc(-c3ccc(OC)cc3)nn1)=C\CC[C@@]1(C)O[C@@H]21` in this test active

Query: recorded result category for `NCCNc1nc(-c2ccccc2)nc2nc(-c3ccccc3)oc12` in this test inactive

Query: recorded result category for `COc1ccc(C(=O)c2ccc(C)cc2)c(OC)c1OC` in this test inactive

Query: recorded result category for `N=c1ccc2nc3c(cc(N)c4ccccc43)oc-2c1` in this test active

Query: recorded result category for `COc1cc(OC)c2c(c1)c1nc3cc(C)c(C)cc3nc1n2CCN(C)C` in this test inactive

Query: recorded result category for `O=S(=O)(NCCNc1cc(-c2cn(-c3ccccc3)nc2-c2cccc(O)c2)ccn1)c1ccccc1` in this test inactive

Query: recorded result category for `COC(=O)[C@@H]1[C@H]2C[C@H]3c4[nH]c5cc(OC)ccc5c4CCN3C[C@@H]2C[C@H](OC(=O)/C=C/c2ccnc(OC)c2)[C@H]1OC` in this test inactive

Query: recorded result category for `CC1(C)C(=O)/C(=C\c2ccccn2)C[C@]2(C)[C@H]3CC[C@@H]4[C@@H](C(=O)/C=C/c5ccccn5)CC[C@@]4(C)[C@]3(C)CC[C@@H]12` in this test active

Query: recorded result category for `COc1ccc(-c2cc(/C=C/C(=O)c3ccc(OC)c(OC)c3)[nH]n2)cc1` in this test active

Query: recorded result category for `Cc1cccc(C)c1NCc1nc(-c2ccccc2)n[nH]1` in this test inactive

Query: recorded result category for `CC(=O)O[C@H]1CC[C@]2(C)[C@H]3CC=C4[C@@H]5[C@H](C)[C@@H](C)CC[C@]5(C(=O)NCCNCCNCCN)CC[C@@]4(C)[C@]3(C)CC[C@H]2C1(C)C` in this test inactive

Query: recorded result category for `C/C(=N\Nc1ccc2ccccc2n1)c1ccccn1` in this test inactive

Query: recorded result category for `CCOC(=O)N1CCN(CCCCOc2ccc(C(C)(C)CC)cc2)CC1` in this test inactive

Query: recorded result category for `C=COCCCCCCCCCCCCCCCCCC` in this test inactive

Query: recorded result category for `CCCCC[C@H]1CC=C2C(=O)C(Cl)=C[C@@H]2CC=CCCCC(=O)O[C@@H](CCCCC)CC=C2C(=O)C(Cl)=C[C@@H]2CC=CCCCC(=O)O[C@@H](CCCCC)CC=C2C(=O)C(Cl)=C[C@@H]2CC=CCCCC(=O)O1` in this test inactive

Query: recorded result category for `Cc1ccccc1-c1nc(C(Cl)Cl)nc2cc(-c3ccccc3)nn12` in this test inactive

###

Tested on: NCI-H460 lung
Test: NCI-60 one-dose screen, 48 h
Settings: 10 µM unless noted
This is part of a sample that, as a whole, favours compounds with a hit. Of some 83,000 tested, about 20% had one in any assay. Active and inactive are the calls of the source. The calls were made as follows: active = growth percent below 10; inactive = the rest.
Your response should consist of one outcome taken from TRUE = active, FALSE = inactive

Query: recorded result category for `CCCCn1c(-c2ccc(O)cc2)cn2c3c(=O)[nH]c(=O)n(C)c3nc12` in this test FALSE

Query: recorded result category for `COC(=O)[C@]12CC[C@@H](C)[C@H](C)[C@@H]1C1=CC[C@@H]3[C@@]4(C)C(c5ncon5)=C[C@@](C)(CO)C4=CC[C@@]3(C)[C@]1(C)CC2` in this test TRUE

Query: recorded result category for `Cc1cc(N2CCN(C)CC2)nc(N(CCNc2ccnc3cc(Cl)ccc23)Cc2ccco2)n1` in this test FALSE

Query: recorded result category for `Cn1c2ccccc2c2c3c(c4c5cccnc5[nH]c4c21)C(=O)N(O)C3=O` in this test FALSE

Query: recorded result category for `CC(=O)O[C@H]1CC[C@]2(C)[C@H]3C(=O)C=C4[C@@H]5C[C@](C)(C(=O)N6CCCNCC6)CC[C@]5(C)CC[C@@]4(C)[C@]3(C)CC[C@H]2C1(C)C` in this test TRUE

Query: recorded result category for `O=C1Nc2ccccc2/C1=C/c1cn(CCCn2c3ccccc3c(=O)c3ccccc32)c2ccccc12` in this test FALSE

Query: recorded result category for `N#Cc1c(-c2ccc(O)cc2)c2c(N)nn(-c3ccccc3)c2[nH]c1=O` in this test FALSE

Query: recorded result category for `CCN1CCN(C(=O)[C@]23CCC(C)(C)C[C@H]2C2=CC[C@@H]4[C@@]5(C)CC/C(=N/O)C(C)(C)[C@@H]5CC[C@@]4(C)[C@]2(C)CC3)CC1` in this test FALSE

Query: recorded result category for COc1ccc(/C=C/C(=O)NCC(C)O)cc1 (stereo not drawn) in this test FALSE

Query: recorded result category for `O=C1c2ccccc2C(=Cc2ccccc2)c2ccccc21` in this test TRUE

Query: recorded result category for `CC(=O)OC[C@]12CC[C@@H](/C(C)=N/O)[C@@H]1[C@H]1CC[C@@H]3[C@@]4(C)CCCNC(C)(C)[C@@H]4CC[C@@]3(C)[C@]1(C)CC2` in this test FALSE

Query: recorded result category for `COC(=O)[C@]12CC[C@@H](C)[C@H](C)[C@@H]1C1=CC(=O)[C@@H]3[C@@]4(C)C[C@@H](OC(C)=O)[C@H](OC(C)=O)[C@@](C)(COC(C)=O)[C@@H]4C(=O)C[C@@]3(C)[C@]1(C)CC2` in this test FALSE

Query: recorded result category for `COc1cnc2c(c1)C(=O)c1c-2n(CCCN2CCN(CCO)CC2)c(=O)c2cc([N+](=O)[O-])ccc12` in this test TRUE
